The reported measurements were obtained from patent US9889126B2.

# Test system: human subcutaneous veins
# ASSAY NAME: Vascular tonicity of human subcutaneous veins ex vivo, myography
# Format: cell-based
# CONDITION PARAMETERS: human subcutaneous vein, n=1
Give Emax (% max. contraction vs. 80 mM KCL) for every item shown.
Give bare numbers, in %.

Example results:
INSERT INTO assay_data (record_smiles, assay_result) VALUES
  ('CNS(=O)(=O)Cc1ccc2[nH]cc(CCN(C)C)c2c1', 101),
  ('CNS(=O)(=O)CCc1ccc2[nH]cc(C3CCN(C)CC3)c2c1', 105);

Please report Emax (% max. contraction vs. 80 mM KCL) for every entry that follows.
1. CN(C)CCc1c[nH]c2ccc(Cn3cncn3)cc12
2. CN(C)CCc1c[nH]c2ccc(CS(=O)(=O)N3CCCC3)cc12

1. 94
2. 97
